experiment: Absorption characteristics: transmission spectrum of near-infrared absorbing layer of NIR filter (UV-visible spectrophotometer); format: physicochemical; conditions: transparent resin acrylic resin BR50, nd(B) 1.56, film thickness 2.3 μm
property.measured: λa − λc (nm)

compound	λa − λc [nm]
CCCC(CCC)C(=O)Nc1cc2c(cc1C1=C([O-])C(=c3cc4c(cc3NC(=O)C(CCC)CCC)=[N+](C)C(C)C4(C)C)C1=O)C(C)(C)C(C)N2C (stereo not shown)	71
CC(CCC(C(=O)Nc1cc2c(cc1C1=C([O-])C(=c3cc4c(cc3NC(=O)C(CCC(C)CC(C)(C)C)C(C)CC(C)(C)C)=[N+](C)C(C)C4(C)C)C1=O)C(C)(C)C(C)N2C)C(C)CC(C)(C)C)CC(C)(C)C (stereo not shown)	71
CCCCC(CC)C(=O)Nc1cc2c(cc1C1=C([O-])C(=c3cc4c(cc3NC(=O)C(CC)CCCC)=[N+](C)C(C)C4(C)C)C1=O)C(C)(C)C(C)N2C (stereo not shown)	72
Cc1ccc(C)c(OCCCC(C)(C)C(=O)Nc2cc3c(cc2C2=C([O-])C(=c4cc5c(cc4NC(=O)C(C)(C)CCCOc4cc(C)ccc4C)=[N+](C)C(C)C5(C)C)C2=O)C(C)(C)C(C)N3C)c1 (stereo not shown)	71

###

experiment: Solubility of dye to organic solvent; type: physicochemical; conditions: toluene, 50° C.; mass % of the dye to the mass of the entire solution
property.measured: Solubility to organic solvent: Toluene (% mass %)

compound	property.measured	unit.abbreviation	recorded.result
CCCCC(CC)C(=O)Nc1cc2c(cc1C1=C([O-])C(=c3cc4c(cc3NC(=O)C(CC)CCCC)=[N+](C)C(C)C4(C)C)C1=O)C(C)(C)C(C)N2C (stereo not drawn) [Example A11-2]	Solubility to organic solvent: Toluene	% mass %	5.00

a = CCCCCCCC(=O)Nc1cc2c(cc1C1=C([O-])C(=c3cc4c(cc3NC(=O)CCCCCCC)=[N+](C)C(C)C4(C)C)C1=O)C(C)(C)C(C)N2C (stereo not drawn) [Example A11-24, reference compound]
b = CCCCCC(=O)Nc1cc2c(cc1C1=C([O-])C(=c3cc4c(cc3NC(=O)CCCCC)=[N+](C)C(C)C4(C)C)C1=O)C(C)(C)C(C)N2C (stereo not drawn) [Example A11-22, reference compound]
In: Between the two listed entries a and b , which has its Solubility to organic solvent: Toluene at the higher number? State your choice using its label.
Out: a

###

experiment: Absorption characteristics: transmission spectrum of near-infrared absorbing layer of NIR filter (UV-visible spectrophotometer); type: physicochemical; conditions: transparent resin polycarbonate EP5000, nd(B) 1.63, film thickness 2.4 μm
property.measured: λb (nm)

compound	unit.abbreviation	recorded.result
CCCCC(CC)C(=O)Nc1cc2c(cc1C1=C([O-])C(=c3cc4c(cc3NC(=O)C(CC)CCCC)=[N+](C)C(C)C4(C)C)C1=O)C(C)(C)C(C)N2C (stereo not drawn)	nm	724
CCCCCCCCCCCC(=O)Nc1cc2c(cc1C1=C([O-])C(=c3cc4c(cc3NC(=O)CCCCCCCCCCC)=[N+](C)C(C)C4(C)C)C1=O)C(C)(C)C(C)N2C (stereo not drawn) [Example A11-25, reference compound]	nm	723
CCCCC(CC)C(=O)Nc1cc2c(cc1C1=C([O-])C(=c3cc4c(cc3NC(=O)C(CC)CCCC)=[N+](C(C)C)C(C)C4(C)C)C1=O)C(C)(C)C(C)N2C(C)C (stereo not drawn)	nm	730
CCCC(C)(C)C(=O)Nc1cc2c(cc1C1=C([O-])C(=c3cc4c(cc3NC(=O)C(C)(C)CCC)=[N+](C)C(C)C4(C)C)C1=O)C(C)(C)C(C)N2C (stereo not drawn)	nm	719
Cc1ccc(C)c(OCCCC(C)(C)C(=O)Nc2cc3c(cc2C2=C([O-])C(=c4cc5c(cc4NC(=O)C(C)(C)CCCOc4cc(C)ccc4C)=[N+](C)C(C)C5(C)C)C2=O)C(C)(C)C(C)N3C)c1 (stereo not drawn)	nm	719
CCCC(CCC)C(=O)Nc1cc2c(cc1C1=C([O-])C(=c3cc4c(cc3NC(=O)C(CCC)CCC)=[N+](C)C(C)C4(C)C)C1=O)C(C)(C)C(C)N2C (stereo not drawn)	nm	724

###

Test: Absorption characteristics: transmission spectrum of near-infrared absorbing layer of NIR filter (UV-visible spectrophotometer)
Type: physicochemical
Conditions: transparent resin polycarbonate SP3810, nd(B) 1.63, film thickness 2.8 μm
Experimental: Further, the transmittance of the near-infrared absorbing layer can be measured by using an ultraviolet visible light spectrophotometer. For example, when the near-infrared absorbing layer is provided on a glass substrate, the transmittance is calculated by subtracting the transmittance of only the glass substrate. […]
property.measured: λb (nm)

compound	λb [nm]
CC(=O)Nc1cc2c(cc1C1=C([O-])C(=c3cc4c(cc3NC(C)=O)=[N+](C)C(C)C4(C)C)C1=O)C(C)(C)C(C)N2C (stereo not drawn) [Example A11-20, reference compound]	724
Cc1ccc(C)c(OCCCC(C)(C)C(=O)Nc2cc3c(cc2C2=C([O-])C(=c4cc5c(cc4NC(=O)C(C)(C)CCCOc4cc(C)ccc4C)=[N+](C)C(C)C5(C)C)C2=O)C(C)(C)C(C)N3C)c1 (stereo not drawn)	719
CCCCCCCC(=O)Nc1cc2c(cc1C1=C([O-])C(=c3cc4c(cc3NC(=O)CCCCCCC)=[N+](C)C(C)C4(C)C)C1=O)C(C)(C)C(C)N2C (stereo not drawn) [Example A11-24, reference compound]	724
CCCCCCCCCCCC(=O)Nc1cc2c(cc1C1=C([O-])C(=c3cc4c(cc3NC(=O)CCCCCCCCCCC)=[N+](C)C(C)C4(C)C)C1=O)C(C)(C)C(C)N2C (stereo not drawn) [Example A11-25, reference compound]	724
CCCCC(CC)C(=O)Nc1cc2c(cc1C1=C([O-])C(=c3cc4c(cc3NC(=O)C(CC)CCCC)=[N+](C)C(C)C4(C)C)C1=O)C(C)(C)C(C)N2C (stereo not drawn)	724
CCCC(C)(C)C(=O)Nc1cc2c(cc1C1=C([O-])C(=c3cc4c(cc3NC(=O)C(C)(C)CCC)=[N+](C)C(C)C4(C)C)C1=O)C(C)(C)C(C)N2C (stereo not drawn)	719
CCCC(CCC)C(=O)Nc1cc2c(cc1C1=C([O-])C(=c3cc4c(cc3NC(=O)C(CCC)CCC)=[N+](C)C(C)C4(C)C)C1=O)C(C)(C)C(C)N2C (stereo not drawn)	725
CCCCC(CC)C(=O)Nc1cc2c(cc1C1=C([O-])C(=c3cc4c(cc3NC(=O)C(CC)CCCC)=[N+](C(C)C)C(C)C4(C)C)C1=O)C(C)(C)C(C)N2C(C)C (stereo not drawn)	730
CC(CCC(C(=O)Nc1cc2c(cc1C1=C([O-])C(=c3cc4c(cc3NC(=O)C(CCC(C)CC(C)(C)C)C(C)CC(C)(C)C)=[N+](C)C(C)C4(C)C)C1=O)C(C)(C)C(C)N2C)C(C)CC(C)(C)C)CC(C)(C)C (stereo not drawn)	723

###

assay: Absorption characteristics: transmission spectrum of near-infrared absorbing layer of NIR filter (UV-visible spectrophotometer); format: physicochemical; conditions: transparent resin polycarbonate SP3810, nd(B) 1.63, film thickness 1.0 μm
property.measured: Is value (nd(B)×(λa-λc))

compound	recorded.result
CCCCC(CC)C(=O)Nc1cc2c(cc1C1=C([O-])C(=c3cc4c(cc3NC(=O)C(CC)CCCC)=[N+](C)C(C)C4(C)C)C1=O)C(C)(C)C(C)N2C (stereo not drawn) [Example A11-2]	114.4
Cc1ccc(C)c(OCCCC(C)(C)C(=O)Nc2cc3c(cc2C2=C([O-])C(=c4cc5c(cc4NC(=O)C(C)(C)CCCOc4cc(C)ccc4C)=[N+](C)C(C)C5(C)C)C2=O)C(C)(C)C(C)N3C)c1 (stereo not drawn) [Example A11-13]	112.8
CC(=O)Nc1cc2c(cc1C1=C([O-])C(=c3cc4c(cc3NC(C)=O)=[N+](C)C(C)C4(C)C)C1=O)C(C)(C)C(C)N2C (stereo not drawn) [Example A11-20, reference compound]	129.1
CCCC(C)(C)C(=O)Nc1cc2c(cc1C1=C([O-])C(=c3cc4c(cc3NC(=O)C(C)(C)CCC)=[N+](C)C(C)C4(C)C)C1=O)C(C)(C)C(C)N2C (stereo not drawn) [Example A11-14]	112.8
CCCCC(CC)C(=O)Nc1cc2c(cc1C1=C([O-])C(=c3cc4c(cc3NC(=O)C(CC)CCCC)=[N+](C(C)C)C(C)C4(C)C)C1=O)C(C)(C)C(C)N2C(C)C (stereo not drawn) [Example A11-7]	106.3
CCCCCCCC(=O)Nc1cc2c(cc1C1=C([O-])C(=c3cc4c(cc3NC(=O)CCCCCCC)=[N+](C)C(C)C4(C)C)C1=O)C(C)(C)C(C)N2C (stereo not drawn) [Example A11-24, reference compound]	122.6
